Data origin: PubChem BioAssay AID2202554

- Test system: S. typhimurium/E. coli reverse mutation, colony counts
- experimental_details: Bacterial reverse mutation test (aka Ames test) summary data;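 note: His-minus Salmonella and trp-minus E. coli WP2 uvrA pKM101 with or without liver S9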
Results filed as inconclusive are left out. Active and inactive are the calls of the source. The rule behind the calls is not given here.
Classes used: active, inactive

1. Nc1ccc(-c2ccc(N)c(O)c2)cc1O :: active
2. O=C=Nc1ccc(Cc2ccc(N=C=O)cc2)cc1 :: inactive
3. C=C(C)C(=O)OCCCC :: inactive
4. Oc1cc(Cl)c(Cl)cc1Cl :: inactive
5. COc1cc(Cc2cnc(N)nc2N)cc(OC)c1OC :: inactive
6. CC(CCC(=O)O)(c1ccc(O)cc1)c1ccc(O)cc1 :: inactive
7. CCCN(CCC)S(=O)(=O)c1ccc(C(=O)O)cc1 :: inactive
8. CC(CCN(C)C)N(C)C (stereo not given) :: inactive
9. Nc1ccc(-c2ccc(N)cc2)cc1 :: active
10. O=C1NC(=O)C(c2ccccc2)(c2ccccc2)N1 :: inactive
11. CNC(=O)ON=CC(C)(C)SC :: inactive
12. COc1cc(S(=O)(=O)O)c(C)cc1N=Nc1c(O)ccc2cc(S(=O)(=O)O)ccc12 :: inactive
13. NCCNCCN :: inactive
14. CC(=O)CC(=O)N(C)C :: inactive
15. CC(C)N :: inactive
16. O=[N+]([O-])c1cc(C(F)(F)F)cc([N+](=O)[O-])c1Cl :: inactive
17. O=C1CN(N=Cc2ccc([N+](=O)[O-])o2)C(=O)N1 :: active
18. S=C=Nc1cccc2ccccc12 :: active
19. N#CCC#N :: inactive
20. [O]=[W](=[O])=[O] :: inactive
21. c1ccc(N=NNc2ccccc2)cc1 :: active
22. CCCCC(CC)COC(=O)c1ccccc1C(=O)OCC(CC)CCCC (stereo not given) :: inactive
23. Nc1nc(=O)n([C@@H]2CS[C@H](CO)O2)cc1F :: inactive
24. Cc1cc(=O)oc2cc(O)cc(O)c12 :: inactive
25. NC1(C(=O)O)CCCC1 :: inactive
26. Clc1ccc(Cl)c(Cl)c1 :: inactive
27. CC(=O)C(C)=NO :: inactive
28. Cc1cc(C)cc([N+](=O)[O-])c1 :: active
29. COC(=O)C1=C(C)NC(C)=C(C(=O)OC)C1c1ccccc1[N+](=O)[O-] :: inactive
30. O=C(CCl)c1ccccc1 :: inactive

----------
- System: S. typhimurium/E. coli reverse mutation, colony counts
- experimental_details: Bacterial reverse mutation test (aka Ames test) summary data;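 note: His-minus Salmonella and trp-minus E. coli WP2 uvrA pKM101 with or without liver S9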
Inconclusive results are not listed. The source made the active and inactive calls. The rule behind the calls is not given here.
property_name: outcome

1) CCn1c2ccccc2c2cc(N)ccc21 :: active; positive
2) COc1ccc(C(=O)/C(Br)=C\C(=O)O)cc1 :: active; positive
3) NC(N)=NC(=O)c1nc(Cl)c(N)nc1N :: active; positive
4) C=C(C)C(=O)OCC(Br)CBr (stereo not drawn) :: active; positive
5) C=CC(=O)NCNC(=O)C=C :: active; positive
6) CCOC(=O)C1OC1c1ccccc1 (stereo not drawn) :: inactive; negative
7) O=P(O)(O)Oc1c[nH]c2ccccc12 :: active; positive
8) CC(C)C#N :: inactive; negative

----------
- Test system: S. typhimurium/E. coli reverse mutation, colony counts
- experimental_details: Bacterial reverse mutation test (aka Ames test) summary data;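 note: His-minus Salmonella and trp-minus E. coli WP2 uvrA pKM101 with or without liver S9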
Records with an inconclusive call do not appear. Calls of active or inactive are those of the source. No rule for the calls is given here.
Classes used: active, inactive

1) ClC(Cl)(Cl)Cl :: inactive
2) OCCOCCO :: inactive
3) Cc1cc(C)nc(NS(=O)(=O)c2ccc(N)cc2)n1 :: inactive
4) CC(=O)O[C@]1(C(C)=O)CC[C@H]2[C@@H]3C[C@H](C)C4=CC(=O)CC[C@]4(C)[C@H]3CC[C@@]21C :: inactive
5) CCCCC(CC)COC(=O)c1ccccc1C(=O)O (stereo unspecified) :: inactive
6) Oc1ccc2ccccc2c1N=Nc1ccccc1 :: active
7) OCCOCCOCCO :: active
8) O=C(O)c1cc(O)c2c(c1)C(=O)c1cccc(O)c1C2=O :: active
9) CN(C)C(=S)[S-].CN(C)C(=S)[S-].[Pb+2] :: active
10) CCCCNS(=O)(=O)c1ccccc1 :: inactive
11) C=O :: active
12) CC(C)CN(CC(C)C)CC(C)C :: inactive
13) C=CCOC(=O)c1ccccc1C(=O)OCC=C :: inactive
14) CCc1ccc(N)cc1 :: inactive
15) c1ccc(O[Si](Oc2ccccc2)(Oc2ccccc2)Oc2ccccc2)cc1 :: inactive
16) CC(C)[N+](=O)[O-] :: active
17) CC(C)COC(=O)c1ccccc1N :: inactive
18) C=CCOC(=O)C=C :: inactive
19) CC(C)(c1ccc(O)cc1)c1ccc(O)cc1 :: inactive
20) CCCCC(CC)COC(=O)c1cccc(C(=O)OCC(CC)CCCC)c1 (stereo unspecified) :: inactive
21) COc1c2ccoc2cc2oc(=O)ccc12 :: active
22) Cc1cccc([N+](=O)[O-])c1C :: active
23) CC#N :: inactive
24) CC1(C)S[C@@H]2[C@H](NC(=O)COc3ccccc3)C(=O)N2[C@H]1C(=O)O :: inactive
25) COc1c2occc2cc2ccc(=O)oc12 :: active
26) COc1cc2c(c(OC)c1OC)-c1ccc(OC)c(=O)cc1[C@@H](NC(C)=O)CC2 :: inactive
27) NCCc1ccc(O)c(O)c1 :: active
28) Brc1ccccc1-c1ccccc1 :: inactive
29) Nc1c(N=Nc2ccc([N+](=O)[O-])cc2)c(S(=O)(=O)O)cc2cc(S(=O)(=O)O)c(N=Nc3ccccc3)c(O)c12 :: active
30) COc1cc(/C=C/C(=O)CC(=O)/C=C/c2ccc(O)c(OC)c2)ccc1O :: inactive
31) O=[N+]([O-])c1ccccc1O :: inactive
32) Clc1ccc2c(c1)Oc1ccc(Cl)cc1O2 :: inactive
33) C=CC(C)=O :: active
34) C1COCCN1 :: inactive
35) CN(C)c1ccc(C(=C2C=CC(=[N+](C)C)C=C2)c2ccccc2)cc1 :: inactive
36) O=S(=O)(O)C(F)(F)C(F)(F)C(F)(F)C(F)(F)C(F)(F)C(F)(F)C(F)(F)C(F)(F)F :: inactive
37) CCOC(C)(C)C :: inactive
38) N#CCBr :: inactive
39) Clc1cccc2ccccc12 :: active
40) CC(C)O :: inactive
41) C=CCc1ccc(OC)cc1 :: inactive
42) CN(C)CCCN1c2ccccc2Sc2ccc(Cl)cc21 :: inactive
43) NC(=O)c1cccc([N+](=O)[O-])c1 :: active
44) Cc1ccccc1C(OCCN(C)C)c1ccccc1 (stereo unspecified) :: inactive
45) OCC(Br)CBr (stereo unspecified) :: active
46) O=C1OC(=O)c2ccccc21 :: inactive
47) N#CSCSc1nc2ccccc2s1 :: active
48) CCCCCC(=O)OCC :: inactive
49) COc1ccc(N)cc1N :: active
50) O=CC(Cl)(Cl)Cl :: active
51) CC(C)=CCCC(C)=CC=O :: inactive
52) CCCCCC=CC=CC=O :: inactive
53) C[Si]12OCCN(CCO1)CCO2 :: inactive
54) O=[N+]([O-])c1cccc(O)c1 :: active
55) Cc1cccc([N+](=O)[O-])c1C(=O)O :: active
56) CC(C)C(C)C :: inactive
57) Nc1ccccc1N :: active
58) C=CC1(C)OC(=O)N(c2cc(Cl)cc(Cl)c2)C1=O (stereo unspecified) :: inactive
59) Nc1ccc(O)c(N)c1 :: active
60) O=C(O)c1ccc(Cl)cc1Cl :: inactive
61) C=CC(=O)OCCCCCCOC(=O)C=C :: inactive

----------
- System: S. typhimurium/E. coli reverse mutation, colony counts
- experimental_details: Bacterial reverse mutation test (aka Ames test) summary data;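 note: His-minus Salmonella and trp-minus E. coli WP2 uvrA pKM101 with or without liver S9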
Inconclusive results are not listed. Active and inactive are the calls of the source. The rule behind the calls is not given here.
property_name: outcome

1) OCCN1CC1 :: active; positive
2) C=CC(=O)OCCBr :: active; positive
3) S=C1NC=NC2N=CNC12 (stereo not given) :: active; positive
4) Cc1cc(C(=O)O)ccc1[N+](=O)[O-] :: active; positive
5) O=C(O)c1ccccc1Cl :: inactive; negative
6) CC1CCCO1 (stereo not given) :: inactive; negative
7) CC(=O)Nc1cccc(N)c1 :: active; positive
8) O=CC=Cc1ccco1 :: inactive; negative
9) O=C(O)CN(CCN(CC(=O)O)CC(=O)O)CC(=O)O :: inactive; negative
10) ClCC(Cl)(Cl)Cl :: inactive; negative
11) O=C(O)c1ccc(O)cc1O :: inactive; negative
12) COP(=S)(OC)Oc1ccc(SC)c(C)c1 :: active; weakly positive
13) Oc1ccc2cc(SSc3ccc4cc(O)ccc4c3)ccc2c1 :: inactive; negative
14) C=CC(=O)OC :: inactive; negative
15) Cc1ccc(C)o1 :: inactive; negative
16) ClC(Cl)(Cl)CC1CO1 (stereo not given) :: active; positive
17) ClCCCCl :: active; positive
18) CC1CNCC(C)O1 (stereo not given) :: active; positive
19) CN(C)c1ccc(C(=O)c2ccc(N(C)C)cc2)cc1 :: active; positive
20) Oc1c(Br)c(Br)c(Br)c(Br)c1Br :: inactive; negative
21) OCC1CO1 (stereo not given) :: active; positive
22) CCCCOCCOCCOCc1cc2c(cc1CCC)OCO2 :: inactive; negative
23) O=C(O)C(Cl)(Cl)Br :: active; positive
24) Cc1ccc(N)c(C)c1 :: active; positive
25) CC(=O)Nc1ccccc1 :: inactive; negative
26) CCCCCCCCCCCCCCCCCC(=O)O :: inactive; negative
27) Cl/C=C\Cl :: inactive; negative
28) Nc1nc(N)nc(N)n1 :: inactive; negative
29) C=C(C)C#N :: inactive; negative
30) CCCC=NO :: active; weakly positive
31) c1ccc2c(c1)-c1cccc3c1c-2cc1ccccc13 :: active; positive
32) Cc1ccc(N=Nc2c(O)ccc3ccccc23)c([N+](=O)[O-])c1 :: active; positive
33) COP(=O)(OC)OC=C(Cl)Cl :: active; positive
34) CN(C)c1cccc(O)c1 :: active; positive
35) Cc1ccccc1Br :: inactive; negative
